Origin of values: patent US20230069174A1

Please go through the items and note down their AUC.
Assay: Pharmacokinetic experiment in mice (single dose iv and intragastric)
Format: in vivo
Details: mouse; male C57 mice, iv 2.5 mg/kg, plasma
Give bare numbers, in ng·h/mL.

Reference set (2 entries):
{"COMPOUND": "O=C(Cc1nnc(-c2cnc(N[C@@H]3Cc4ccc(C(F)(F)F)cc4C3)nc2)o1)N1CCc2[nH]nnc2C1", "UNITS LABEL": "ng·h/mL", "AUC": 6780}
{"COMPOUND": "O=C(Cc1nnc(-c2cnc(N[C@@H]3Cc4ccc(C(F)F)cc4C3)nc2)o1)N1CCc2[nH]nnc2C1", "UNITS LABEL": "ng·h/mL", "AUC": 3790}

# ---- query compound ----
Identify measured AUC associated with C[C@@](F)(C(=O)N1CCc2[nH]nnc2C1)c1nnc(-c2cnc(NC3Cc4ccccc4C3)nc2)o1 (single isomer, unassigned)
1480

###

Please go through the items and note down their C0.
Assay: Pharmacokinetic experiment in mice (single dose iv and intragastric)
Type: in vivo
Conditions: mouse; male C57 mice, iv 2.5 mg/kg, plasma
Give bare numbers, in ng/mL.

Reference set (2 entries):
{"COMPOUND": "O=C(Cc1nnc(-c2cnc(N[C@@H]3Cc4ccc(C(F)(F)F)cc4C3)nc2)o1)N1CCc2[nH]nnc2C1", "UNITS LABEL": "ng/mL", "C0": 6850}
{"COMPOUND": "C[C@@](F)(C(=O)N1CCc2[nH]nnc2C1)c1nnc(-c2cnc(NC3Cc4ccccc4C3)nc2)o1 (single isomer, unassigned)", "UNITS LABEL": "ng/mL", "C0": 3330}

# ---- query compound ----
Identify measured C0 associated with O=C(Cc1nnc(-c2cnc(N[C@@H]3Cc4ccc(C(F)F)cc4C3)nc2)o1)N1CCc2[nH]nnc2C1
6640

###

Biological target: ATX (Homo sapiens)
Construct: ATX activity was detected by detecting LPA production in pooled human plasma; from tissue; host or cells: pooled human plasma (heparin-anticoagulated whole blood, centrifuged)
Assay: ATX inhibitory activity: LPA production in pooled human plasma, LC-MS-MS
Format: biochemical
Settings: LPA 20:4 readout, 37° C. 2 h, read-out: Inhibitory activity against ATX receptor, LPA 20:4 IC50
QUANTITY: IC50
Reply with the number, then its unit.

{"COMPOUND": "N#Cc1nn(CC(=O)N2CCc3[nH]nnc3C2)cc1-c1cnc(NC2Cc3ccccc3C2)nc1", "IC50": "6.85 nM"}
{"COMPOUND": "O=C(Cc1nnc(-c2cnc(N[C@@H]3Cc4ccc(C(F)(F)F)cc4C3)nc2)o1)N1CCc2[nH]nnc2C1", "IC50": "2.25 nM"}
{"COMPOUND": "O=C(Cc1nnc(-c2cnc(NC3Cc4cc5c(cc4C3)OCO5)nc2)o1)N1CCc2nn[nH]c2C1", "IC50": "3.27 nM"}

Give me IC50 for each of these compounds, listed below.
1. O=C(Cc1nnc(-c2cnc(NC3Cc4ccc(-c5ccoc5)cc4C3)nc2)o1)N1CCc2[nH]nnc2C1 (centres unmarked)
2. C#Cc1ccc2c(c1)C[C@@H](Nc1ncc(-c3nnc(CC(=O)N4CCc5[nH]nnc5C4)o3)cn1)C2 (single isomer, unassigned)

1: 5.4 nM; 2: 1.56 nM

###

Assay: Pharmacokinetic experiment in mice (single dose iv and intragastric)
Assay type: in vivo
Details: mouse; male C57 mice, iv 2.5 mg/kg, plasma
Please go through the items and note down their half-life.
Reply with the number, then its unit.

Reference set (2 entries):
{"COMPOUND": "O=C(Cc1nnc(-c2cnc(N[C@@H]3Cc4ccc(C(F)(F)F)cc4C3)nc2)o1)N1CCc2[nH]nnc2C1 [Compound 35]", "half-life": "61.2 min"}
{"COMPOUND": "O=C(Cc1nnc(-c2cnc(N[C@@H]3Cc4ccc(C(F)F)cc4C3)nc2)o1)N1CCc2[nH]nnc2C1 [Compound 37]", "half-life": "53.3 min"}

# ---- query compound ----
Identify measured half-life associated with C[C@@](F)(C(=O)N1CCc2[nH]nnc2C1)c1nnc(-c2cnc(NC3Cc4ccccc4C3)nc2)o1 (single isomer, unassigned) [Compound 38]
33.1 min

###

Please go through the items and note down their half-life.
Assay: Pharmacokinetic experiment in mice (single dose iv and intragastric)
Assay type: in vivo
Conditions: mouse; male C57 mice, po 10 mg/kg, plasma
Answers are plain numbers, in min.

Reference set (2 entries):
{"MOLECULE": "O=C(Cc1nnc(-c2cnc(N[C@@H]3Cc4ccc(C(F)(F)F)cc4C3)nc2)o1)N1CCc2[nH]nnc2C1", "QUANTITY": "half-life", "OBSERVED RESULT": 56.8}
{"MOLECULE": "O=C(Cc1nnc(-c2cnc(N[C@@H]3Cc4ccc(C(F)F)cc4C3)nc2)o1)N1CCc2[nH]nnc2C1", "QUANTITY": "half-life", "OBSERVED RESULT": 78.6}

# ---- query molecule ----
Identify measured half-life associated with C[C@@](F)(C(=O)N1CCc2[nH]nnc2C1)c1nnc(-c2cnc(NC3Cc4ccccc4C3)nc2)o1 (single isomer, unassigned)
48.3

###

Target: ATX (Homo sapiens, UniProt Q13822)
Construct: ATX activity was detected by detecting LPA production in pooled human plasma; from tissue; host or cells: pooled human plasma (heparin-anticoagulated whole blood, centrifuged)
Assay: ATX inhibitory activity: LPA production in pooled human plasma, LC-MS-MS
Format: biochemical
Conditions: LPA 20:4 readout, 37° C. 2 h, read-out: Inhibitory activity against ATX receptor, LPA 20:4 IC50
QUANTITY: IC50 (nM)
Answers are plain numbers, in nM.

Reference set (10 entries):
{"MOLECULE": "N#Cc1ccc2c(c1)CC(Nc1ncc(-c3nnc(CC(=O)N4CCc5[nH]nnc5C4)o3)cn1)C2 (stereo not drawn)", "OBSERVED RESULT": 6.18}
{"MOLECULE": "CNC(=O)c1nn(CC(=O)N2CCc3[nH]nnc3C2)cc1-c1cnc(NC2Cc3ccccc3C2)nc1", "OBSERVED RESULT": 5.65}
{"MOLECULE": "O=C(Cc1nnc(-c2cnc(NC3Cc4cc5c(cc4C3)CC5)nc2)o1)N1CCc2[nH]nnc2C1", "OBSERVED RESULT": 1.92}
{"MOLECULE": "O=C(Cc1nnc(-c2cnc(N[C@@H]3Cc4ccc(C(F)F)cc4C3)nc2)o1)N1CCc2[nH]nnc2C1", "OBSERVED RESULT": 4.78}
{"MOLECULE": "O=C(Cc1nnc(-c2cnc(NC3Cc4ccc(C5CC5)cc4C3)nc2)o1)N1CCc2[nH]nnc2C1 (stereo not drawn)", "OBSERVED RESULT": 7.67}
{"MOLECULE": "C[C@@](F)(C(=O)N1CCc2[nH]nnc2C1)c1nnc(-c2cnc(NC3Cc4ccccc4C3)nc2)o1 (single isomer, unassigned)", "OBSERVED RESULT": 5.88}
{"MOLECULE": "O=C(Cc1nnc(-c2cnc(N[C@H]3Cc4ccc(-c5ccoc5)cc4C3)nc2)o1)N1CCc2[nH]nnc2C1 (single isomer, unassigned)", "OBSERVED RESULT": 2.69}
{"MOLECULE": "C#Cc1ccc2c(c1)CC(Nc1ncc(-c3nnc(CC(=O)N4CCc5[nH]nnc5C4)o3)cn1)C2 (stereo not drawn)", "OBSERVED RESULT": 2.85}
{"MOLECULE": "O=C(N1CCc2[nH]nnc2C1)C1(c2nnc(-c3cnc(NC4Cc5ccccc5C4)nc3)o2)CC1", "OBSERVED RESULT": 5.33}
{"MOLECULE": "O=C(Cc1nnc(-c2cnc(NC3Cc4cscc4C3)nc2)o1)N1CCc2[nH]nnc2C1", "OBSERVED RESULT": 8.86}

Give me IC50 for each of these molecules, listed below.
1. N#Cc1nc(CC(=O)N2CCc3[nH]nnc3C2)oc1-c1cnc(NC2Cc3ccccc3C2)nc1
2. CC(F)(C(=O)N1CCc2[nH]nnc2C1)c1nnc(-c2cnc(NC3Cc4ccccc4C3)nc2)o1 (stereo not drawn)
3. O=C(N1CCc2[nH]nnc2C1)C1(c2nnc(-c3cnc(NC4Cc5ccccc5C4)nc3)o2)CCC1
4. O=C(Cc1nnc(-c2cnc(NC3Cc4ccc(C(F)F)cc4C3)nc2)o1)N1CCc2[nH]nnc2C1 (stereo not drawn)
5. O=C(NC1(c2nnc(-c3cnc(NC4Cc5ccccc5C4)nc3)o2)CC1)N1CCc2[nH]nnc2C1

1. 6.84
2. 7.08
3. 3.76
4. 3.65
5. 6.56

###

Please go through the items and note down their IC50.
Target: ATX (Homo sapiens, UniProt Q13822)
Construct: ATX activity was detected by detecting LPA production in pooled human plasma; from tissue; host or cells: pooled human plasma (heparin-anticoagulated whole blood, centrifuged)
Test: ATX inhibitory activity: LPA production in pooled human plasma, LC-MS-MS
Type: biochemical
Conditions: LPA 18:2 readout, 37° C. 2 h, read-out: Inhibitory activity against ATX receptor, LPA 18:2 IC50
Answers are plain numbers, in nM.

{"MOLECULE": "O=C(NC1(c2nnc(-c3cnc(NC4Cc5ccccc5C4)nc3)o2)CC1)N1CCc2[nH]nnc2C1", "TEST TARGET": "ATX (Homo sapiens, UniProt Q13822)", "QUANTITY": "IC50", "UNITS LABEL": "nM", "OBSERVED RESULT": 5.97}
{"MOLECULE": "O=C(Cc1nnc(-c2cnc(NC3Cc4ccc(C(F)F)cc4C3)nc2)o1)N1CCc2[nH]nnc2C1 (centres unmarked)", "TEST TARGET": "ATX (Homo sapiens, UniProt Q13822)", "QUANTITY": "IC50", "UNITS LABEL": "nM", "OBSERVED RESULT": 3.26}
{"MOLECULE": "O=C(Cc1nnc(-c2cnc(NC3Cc4ccc(-c5ccoc5)cc4C3)nc2)o1)N1CCc2[nH]nnc2C1 (centres unmarked)", "TEST TARGET": "ATX (Homo sapiens, UniProt Q13822)", "QUANTITY": "IC50", "UNITS LABEL": "nM", "OBSERVED RESULT": 5.24}

Give me IC50 for each of these molecules, listed below.
1. N#Cc1ccc2c(c1)CC(Nc1ncc(-c3nnc(CC(=O)N4CCc5[nH]nnc5C4)o3)cn1)C2 (centres unmarked)
2. C#Cc1ccc2c(c1)C[C@@H](Nc1ncc(-c3nnc(CC(=O)N4CCc5[nH]nnc5C4)o3)cn1)C2 (single isomer, unassigned)
3. O=C(N1CCc2[nH]nnc2C1)C1(c2nnc(-c3cnc(NC4Cc5ccccc5C4)nc3)o2)CCC1
4. O=C(Cn1cc(-c2cnc(NC3Cc4ccccc4C3)nc2)c(OC2CC2)n1)N1CCc2[nH]nnc2C1
5. O=C(Cc1nnc(-c2cnc(NC3Cc4cscc4C3)nc2)o1)N1CCc2[nH]nnc2C1

1: 5.94; 2: 1.51; 3: 3.65; 4: 8.53; 5: 8.73
